All values here come from patent US7332501B2.

Recorded below: Ki, system human V1a receptor (Homo sapiens, UniProt P37288).
Your answer is read as nM, so omit the unit and give the number.

Examples with their reported Ki follow.
- CN1CCC[C@H]1Cn1cc(C(=O)N2CCC3(CC2)OCc2ccccc23)c2ccc(Cl)cc21: 0.07
- O=C(c1c2n(c3ccccc13)CCNC2)N1CCC2(CC1)OCc1ccccc12: 15.7
- COCC1(Cn2cc(C(=O)N3CCC4(CC3)OCc3ccccc34)c3ccc(Cl)cc32)CC1: 2.6
- O=C(c1cn(CCN2CCCC2)c2cc(Cl)ccc12)N1CCC2(CC1)COc1ccccc12: 12.9
- O=C1OC2(CCN(C(=O)c3cn(Cc4cc(F)cc(F)c4)c4cc(Cl)ccc34)CC2)c2ccc(F)cc21: 0.6

# ---- query compound ----
Reported Ki for `O=C(Cn1cc(C(=O)N2CCC3(CC2)CNc2ccccc23)c2ccc(Cl)cc21)c1ccccn1` : what is it?
27.9
